system under test: serotonin 5-HT1A receptor (Rattus norvegicus)
Construct: following the procedure of Hall et al., J. Neurochem; 44, 1685 (1985); from tissue
Sequence (P19327 1-422): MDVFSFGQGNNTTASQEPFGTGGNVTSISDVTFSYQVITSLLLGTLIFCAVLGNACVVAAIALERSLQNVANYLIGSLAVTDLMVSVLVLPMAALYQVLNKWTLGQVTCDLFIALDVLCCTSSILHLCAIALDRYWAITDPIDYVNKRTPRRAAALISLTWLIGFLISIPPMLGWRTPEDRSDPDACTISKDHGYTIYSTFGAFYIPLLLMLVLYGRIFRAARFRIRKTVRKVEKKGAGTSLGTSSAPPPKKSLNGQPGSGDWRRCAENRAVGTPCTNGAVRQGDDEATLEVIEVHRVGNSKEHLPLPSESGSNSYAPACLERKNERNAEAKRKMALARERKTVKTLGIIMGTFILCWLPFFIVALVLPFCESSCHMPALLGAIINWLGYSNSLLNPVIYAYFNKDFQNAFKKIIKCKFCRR
assay explanation: Affinity for the serotonin 5-HT1A receptor, displacement of [3H]8-OHDPAT (Hall et al.)
Assay type: binding
applied conditions: [3H]8-OHDPAT displacement; read-out: Receptor Affinities 5-HT1A (IC50 (nM))
Source text: Affinity for the serotonin 5-HT1A receptor was established by testing the claimed compound's ability to displace [^3 H]8-OHDPAT (dipropylaminotetralin) from the 5-HT1A serotonin receptor following the procedure of Hall et al., J. Neurochem. 44, 1685 (1985). […] The anxiolytic activity of buspirone is believed to be, at least partially, due to its 5-HT1A receptor affinity (Vander Maclen et al., Eur. J. Pharmacol. 1986, 129 (1-2) 133-[…]).
quantity name: IC50 (nM)
Lab book: enter the figure in nM, no units written.

Q: Supply IC50 value. Item: O=c1ccc2ccc(OCCCNCC3COc4ccccc4O3)cc2o1 (stereo not shown)
A: 0.5

Q: Supply IC50 value. Item: O=c1ccc2ccc(OCCCNCC3COc4ccc(O)cc4O3)cc2o1 (stereo not shown)
A: 6

Q: Supply IC50 value. Item: O=c1ccc2ccc(OCCCNCC3COc4cc(O)ccc4O3)cc2o1 (stereo not shown)
A: 112

Q: Supply IC50 value. Item: `O=c1ccc2ccc(OCCCNC[C@H]3COc4cc(O)ccc4O3)cc2o1`
A: 104

---

I'd be grateful if you could share measured Dopa Accumulation (% inhib. @ 10 mg/kg, sc), striatal (S) for these entries.
System: dopamine synthesis (dopa accumulation; dopamine autoreceptor)
assay explanation: Inhibition of dopa accumulation in GBL-treated rats (method of Walters and Roth)
Format: in vivo, rat (male, Sprague-Dawley)
applied conditions: striatal (S) brain tissue, rat
Lab book: enter the figure in %, no units written.

Q: Supply Dopa Accumulation (% inhib. @ 10 mg/kg, sc), striatal (S) value. Item: O=c1ccc2ccc(OCCCNCC3COc4ccccc4O3)cc2o1 (stereo not shown)
A: 1

Q: Supply Dopa Accumulation (% inhib. @ 10 mg/kg, sc), striatal (S) value. Item: O=c1ccc2c(OCCCNCC3COc4ccccc4O3)cccc2[nH]1 (stereo not shown)
A: 51.3

Q: Supply Dopa Accumulation (% inhib. @ 10 mg/kg, sc), striatal (S) value. Item: O=c1ccc2ccc(OCCCNCC3COc4cc(O)ccc4O3)cc2o1 (stereo not shown)
A: 18

Q: Supply Dopa Accumulation (% inhib. @ 10 mg/kg, sc), striatal (S) value. Item: O=c1ccc2ccc(OCCCNCC3COc4ccc(O)cc4O3)cc2o1 (stereo not shown)
A: 73
